biological target: ScPex13; experiment: SPOT peptide array binding signal intensity (averaged, normalized) (arbitrary units (background-subtracted, floor 0; scale differs between SH3 domains)); higher = stronger binding of the SH3 domain to the peptide
recorded endpoint: SPOT peptide array binding signal intensity

>>> measured_number("IPSRPAPKPPSSASA")
2620
>>> measured_number("SKIRPTPRKPSRMAT")
124
>>> measured_number("RLSRLLLSLPPESFT")
1.75
>>> measured_number("QLMKNLPKIPLLNDI")
580
>>> measured_number("APERAVPILPPRNNV")
789
>>> measured_number("IKKRNKIRLPSGSPE")
7.5
